Data provenance is the supplement of paper PMC3545927.

I'd be grateful if you could share measured furin cleavage Z-score for these entries.
target: furin, P09958; experiment: furin cleavage Z-score vs untreated control; higher = more cleavage, active = 3.5 or more, inactive = 1 or less, 8 variable residues between constant flanks; settings: 7.5 min;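 note: purified furin at 1:10 enzyme:substrate in 50 mM HEPES pH 7.5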
Sequence (P09958 whole entry): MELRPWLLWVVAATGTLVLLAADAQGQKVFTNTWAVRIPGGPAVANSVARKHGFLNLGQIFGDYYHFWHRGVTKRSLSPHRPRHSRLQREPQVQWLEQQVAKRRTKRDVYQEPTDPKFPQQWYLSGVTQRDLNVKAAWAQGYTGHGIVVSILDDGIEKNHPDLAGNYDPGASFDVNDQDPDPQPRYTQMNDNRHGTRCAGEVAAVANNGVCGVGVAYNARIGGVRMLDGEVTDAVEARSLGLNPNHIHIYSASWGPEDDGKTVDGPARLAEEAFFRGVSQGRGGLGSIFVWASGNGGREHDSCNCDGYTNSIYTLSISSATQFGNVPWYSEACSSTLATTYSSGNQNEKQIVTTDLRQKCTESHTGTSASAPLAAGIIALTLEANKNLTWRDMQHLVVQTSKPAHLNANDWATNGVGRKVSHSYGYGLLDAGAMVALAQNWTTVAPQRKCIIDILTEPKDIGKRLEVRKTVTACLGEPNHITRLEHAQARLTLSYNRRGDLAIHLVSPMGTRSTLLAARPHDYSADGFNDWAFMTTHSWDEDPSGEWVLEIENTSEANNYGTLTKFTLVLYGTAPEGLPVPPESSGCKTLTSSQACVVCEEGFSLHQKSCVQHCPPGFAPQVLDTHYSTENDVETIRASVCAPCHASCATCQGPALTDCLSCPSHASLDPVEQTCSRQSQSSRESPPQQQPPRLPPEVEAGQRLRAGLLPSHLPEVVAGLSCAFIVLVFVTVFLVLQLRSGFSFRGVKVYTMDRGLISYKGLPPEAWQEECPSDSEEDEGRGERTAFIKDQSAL
Some of the results follow. The hit rate among all sequences tested is not known here.
Answers are plain numbers.

For each entry beneath this line, provide reported furin cleavage Z-score.
1. CARRKRSPTQAGNASASA [FS-2069]
2. CAANGSGPDQAGNASASA [HC398]
3. CALSKRLGRSAGNASASA [FS-1644]
4. CALRKRDVSVAGNASASA [FS-1676]

[11.3, -0.135, 9.63, 4.02]
